# System under test: ZFP SBS#519 (synthetic, UniProt P08047)
# Sequence (P08047 other isoform, or with tags, fused parts or gaps): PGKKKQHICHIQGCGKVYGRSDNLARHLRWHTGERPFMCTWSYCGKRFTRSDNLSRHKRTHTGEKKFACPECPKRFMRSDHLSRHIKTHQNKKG
# Assay: EMSA
# Experimental setup: tags: MBP fusion
Experimental endpoint: pKd
Give bare numbers, as −log10 of the molar value.

Asked: State its pKd for this binder: GGGGAGGAGA (dsDNA) DNA 1: GGGGAGGAGA DNA 2: TCTCCTCCCC
Given back: 9.52

Value source: patent US20030068675
